# Tested on: HOP-62 NSCLC
# Protocol Notes: NCI-60 one-dose screen, 48 h (100 = growth as untreated, 0 = no growth, -100 = all killed)
# Measurement Parameters: 10 µM unless noted
The panel holds about 83,000 compounds, 20% with a hit somewhere; the sample as a whole holds those more often. Active and inactive are the calls of the source. The calls were made as follows: active = growth percent below 10; inactive = the rest.
Property Name: growth

Compound	Property Name	Obs Value
C=C(CBr)[C@@H]1CC[C@]2(C(=O)O)CC[C@]3(C)[C@H](CC[C@@H]4[C@@]5(C)CCC(=O)C(C)(C)[C@@H]5CC[C@]43C)[C@@H]12	growth	112% (inactive)
O=C1C(=O)N(Cc2ccc(-c3ccccc3)cc2)c2ccc(OC(F)(F)F)cc21	growth	37.5% (inactive)
COc1ccc(/C=C(\C#N)n2nnc3ccc(Cl)cc32)cc1	growth	111% (inactive)
O=c1scc(-c2ccc(C(F)(F)F)cc2)s1	growth	92.3% (inactive)
O=C(Nc1ccc(Oc2cccc(Cl)c2)c(Cl)c1)c1cnccn1	growth	41% (inactive)
CCCCNC(=O)Oc1ccc(/C(=C(/C)Cc2ccc(OC)cc2)c2ccc(OCCN(CC)CC)cc2)cc1	growth	91.5% (inactive)
COc1ccc(CN2c3ccccc3Sc3ccccc32)cc1F	growth	20.4% (inactive)
COc1ccc(C/C(C)=C(/c2ccc(OCCN(C)C)cc2)c2ccc(OC(=O)NCc3ccccc3)cc2)cc1	growth	83.3% (inactive)
CCCCCCCCCCCCCCCCOCCCOP(=O)(O)C1CCCN(O)C1=O (stereo not given)	growth	11.9% (inactive)
Cc1cc(=O)oc2cc(OCc3nn4c(Nc5nc6ccccc6s5)c(-c5ccccc5)nc4s3)ccc12	growth	90.2% (inactive)

---

# System: SW-620 colon
# Protocol Notes: NCI-60 one-dose screen, 48 h (100 = growth as untreated, 0 = no growth, -100 = all killed)
# Measurement Parameters: 10 µM unless noted
About 83,000 compounds went through this panel and 20% of them were active in at least one assay; those are over-represented in the sample as a whole.

Compound	Unit Of Measurement	growth
C=CC(=O)N1CCN(c2cccc(Oc3nccc(Nc4nnc(-c5ccc(Br)cc5)s4)n3)c2)CC1	%	35.2
CSc1nc2ccccc2cc1/C=C1/C=C(c2ccccc2)NC1=O	%	55.4
O=C1c2ccc3c4c5ccc(c24)C(=O)N1CCCOCCCCOCCCNCc1ccc(cc1)CNCCCOCCCCOCCCN(C3=O)C5=O	%	-37.8
CC1CN(S(=O)(=O)c2oc(-c3ccc(Cl)cc3)nc2C#N)CC(C)O1 (stereo unspecified)	%	-66.1
Nc1c(C(=O)Nc2ccccc2C(F)(F)F)sc2nc3c(cc12)CCC3	%	96
O=S(=O)(NCCCNc1nccc(-c2c(-c3ccc(F)c(O)c3)nc3sccn23)n1)c1ccccc1	%	56.2
N#CC1=C(c2ccccc2)Nc2c(c(-c3ccc(Cl)cc3)nn2-c2ccccc2)C12C(=O)Nc1ccc(Cl)cc12 (stereo unspecified)	%	85.9
O=C(N(c1ccccc1)c1ccccc1)n1cc(I)c2nc(Cl)nc(Cl)c21	%	26
CN1CCN(C(=O)c2ccc(NC(=O)c3cc4c(nn3)NCCN4Cc3cc(Cl)ccc3Cl)cc2)CC1	%	50.6
CN(C)S(=O)(=O)c1cccc(C(=O)Nc2nc(-c3ccc(F)c(F)c3)cs2)c1	%	93.9
Nc1ncnc2c1C(c1ccccc1)c1ccc3ccccc3c1O2 (stereo unspecified)	%	94.9

---

Each entry below carries its recorded growth.
# System: HCC-2998 colon
# Protocol Notes: NCI-60 one-dose screen, 48 h (100 = growth as untreated, 0 = no growth, -100 = all killed)
# Measurement Parameters: 10 µM unless noted
About 83,000 compounds went through this panel and 20% of them were active in at least one assay; those are over-represented in the sample as a whole.

Molecule	growth, %
CC(=O)N1N=C(c2ccc(C(F)(F)F)c(F)c2)CC1c1[nH]c(C)c(C(=O)NCC(F)(F)F)c1C (stereo not drawn)	72.1
C[PH+](c1nc2ccccc2nc1[PH+](C)C(C)(C)C)C(C)(C)C.C[PH+](c1nc2ccccc2nc1[PH+](C)C(C)(C)C)C(C)(C)C.[Au+].[Cl-] (stereo not drawn)	-100
CC(=O)O[C@@H]1C[C@]2(C(C)C)O[C@@]1(C)[C@@H]1CCC(C)=C1[C@@H]2OC(=O)/C=C/c1ccccc1	103
O=S(=O)(c1ccccc1)n1cc2c(c1)-c1nc(Nc3ncccn3)sc1CC2	85
O=c1c2cnn(-c3ccccc3)c2n2c(CN3CCOCC3)nnc2n1-c1ccccc1	104
CC1(C)COB(OCC(C)(C)COB2OCC(C)(C)CO2)OC1	104
COc1ccc2c(c1OC)CO[C@@H]2[C@H]1c2c(cc3c(c2OC)OCO3)CCN1S(=O)(=O)c1cn(C)cn1	11.7
COc1cc2ncnc(Nc3ccc(F)c(Cl)c3)c2cc1OCC(=O)N1CCN(c2ccccc2)CC1	97.8
Cc1ccc2c(n1)C(=O)C(Br)=C(CC(C)C)C2=O	105
CCNCCNc1cc(C2CCCCC2)c(C#N)c2nc3ccccc3n12	13.6
CN(C)c1ccc(C(=O)OCCCCCCl)cc1	98.4
CC/C=C\C[C@H](O)C/C=C1/C(=O)C=C[C@@H]1C/C=C\CCCC(=O)N(C)C	-90.7
COC(=O)[C@]1(C)CCC[C@]2(C)[C@H]3C[C@H]4C(C(C)C)=C[C@]3(CC[C@H]21)[C@@H]1C(=O)CC[C@H](OCCC#N)[C@@H]14	96.4
COc1ccc(Nc2nnc(-c3ccc(OC)c(OC)c3)o2)cc1	120
CN(C)c1ccc(-c2c(C#N)c(N)nn2C(=O)c2ccc(NC(=O)c3ccccn3)cc2)cc1	95.2
COc1ccc(-c2ccc(=O)oc2-c2cc(OC)c(OC)c(OC)c2)cc1O	-2.78
CC(=O)Oc1ccc(N2C(=O)C(Cl)=C(Nc3cccc(C(F)(F)F)c3)C2=O)cc1	104
CCC(=C(c1ccc(OCCN2CCCCC2)cc1)c1ccc(OCCN2CCCCC2)cc1)c1ccc(Cl)cc1	-87
COc1ccc(-c2nc3c(ncc4ccc(=O)[nH]c43)s2)cc1	91
O=C(/C=C/c1cccc(Cl)c1)c1cccc(OCCCOc2cccc(C(=O)/C=C/c3cccc(Cl)c3)c2)c1	109
COc1cccc(/C=C2\COc3ccc(O)c(O)c3C2=O)c1	19.8
CN1CCc2nc3sc(C(N)=O)c(N)c3c(-c3cccs3)c2C1	53.5
CS(=O)(=O)c1ccc(-c2cnn3ccc(-c4cccc(S(=O)(=O)C5CC5)c4)nc23)cc1	75.4

---

# Tested on: RPMI-8226 leukemia
# Protocol Notes: NCI-60 one-dose screen, 48 h (100 = growth as untreated, 0 = no growth, -100 = all killed)
# Measurement Parameters: 10 µM unless noted
About 83,000 compounds went through this panel and 20% of them were active in at least one assay; those are over-represented in the sample as a whole.
The label depends only on growth: MET if it is at least 20%, NOT MET if it is smaller.

Compound	Test System	Category Label
Nc1[nH]n2cc(-c3ccccc3)nc2c1N=Nc1ccc(S(N)(=O)=O)cc1	RPMI-8226 leukemia	NOT MET
CN1C(=O)/C(=C\c2c(Cl)cccc2Cl)c2ccccc21	RPMI-8226 leukemia	MET
Fc1cnccc1C1CC(c2ccc(N3CCNCC3)cc2)=NN1 (stereo not drawn)	RPMI-8226 leukemia	MET
CN(C)c1ccc(C(=O)OCCCCCCl)cc1	RPMI-8226 leukemia	MET
COc1cc(OC)c(/C=C/C(=O)c2c(OC)cccc2OC)c(OC)c1	RPMI-8226 leukemia	NOT MET
C=C(CBr)[C@@H]1CC[C@]2(C(=O)O)CC[C@]3(C)[C@H](CC[C@@H]4[C@@]5(C)CCC(=O)C(C)(C)[C@@H]5CC[C@]43C)[C@@H]12	RPMI-8226 leukemia	MET
CCC1=C[C@@H]2C[C@]3(C(=O)OC)c4[nH]c5ccccc5c4CC[N@+](CC(=O)Nc4cc5c(cc4OC)N(C)[C@H]4[C@@](O)(C(=O)OC)[C@H](OC(C)=O)[C@]6(CC)C=CCN7CC[C@]54[C@@H]76)(C2)[C@H]13	RPMI-8226 leukemia	MET
Cc1cc(N2CCN(CCNc3ccnc4cc(Cl)ccc34)CC2)nc(N2CCOCC2)n1	RPMI-8226 leukemia	MET
CCC(=C(c1ccc(OCCN2CCCCC2)cc1)c1ccc(OCCN2CCCCC2)cc1)c1ccc(Cl)cc1	RPMI-8226 leukemia	NOT MET
C[C@@H](CO)[C@@H]1CCC=C2CC[C@]3(C)[C@H](CC[C@@H]4[C@@]5(C)CCCNC(C)(C)[C@@H]5CC[C@]43C)[C@H]21	RPMI-8226 leukemia	NOT MET
COc1ccc(C2=Nc3c(N)nc(N)nc3NC(c3cccc(Nc4ccnc5cc(C(F)(F)F)ccc45)c3)C2)cc1 (stereo not drawn)	RPMI-8226 leukemia	NOT MET

---

# System: CAKI-1 renal
# Protocol Notes: NCI-60 one-dose screen, 48 h
# Measurement Parameters: 10 µM unless noted
Compounds without any hit were thinned out: in the full panel of roughly 83,000, 20% have a hit. Active and inactive are the calls of the source. Rule for the calls: active = growth percent below 10; inactive = the rest.
Outcome codes: true (1) = active, false (0) = inactive

Compound	Category Label
O=S(=O)(Nc1cc(F)cc(Cl)c1)c1ccc(-c2cnc(C3CC3)o2)cc1	false (0)
C#CCOc1ccc2ncnc(Nc3ccc(NC(=O)C=C)cc3)c2c1	false (0)
O=C1c2ccccc2-c2c1c1c(=O)[nH]c3ccccc3c1n2Cc1ccccc1	true (1)
C=C1C(=O)O[C@H]2[C@H]1CC/C(Cn1cc(-c3ccccc3)nn1)=C\CC[C@@]1(C)O[C@@H]21	true (1)
COc1ccccc1CNc1c2ccccc2nc2ccccc12	false (0)
COC(=O)[C@]1(C)CCC[C@]2(C)[C@H]3C[C@H]4C(C(C)C)=C[C@]3(CC[C@H]21)[C@@H]1C(=O)CC[C@H](OCCC#N)[C@@H]14	false (0)
Nc1cnc(C(=O)NNc2nc3cc(F)ccc3n3cccc23)cn1	false (0)
CCCCNC(=O)Oc1ccc(/C(=C(/C)Cc2ccc(OC)cc2)c2ccc(OCCN3CCCC3)cc2)cc1	false (0)
C#CCOc1cccc(Nc2ncnc3ccc(NC(=O)C=C)cc23)c1	false (0)
Cc1cccc(CNc2c3ccccc3nc3ccccc23)c1	false (0)
O=C(C[C@]1(O)C(=O)Nc2ccccc21)c1cccc(C(F)(F)F)c1	false (0)
COc1ccc(C2=Nc3c(N)nc(N)nc3NC(c3cccc(Nc4ccnc5cc(C(F)(F)F)ccc45)c3)C2)cc1 (stereo not drawn)	false (0)
CC(C)=CCCC(C)c1ccc(C)c2c1OCN(CCCCCO)C2 (stereo not drawn)	false (0)
CCOc1ccccc1Cn1ccnc1CCc1c(Cl)c(O)cc(O)c1C(=O)OC	false (0)
O=C1C(Cl)=C(NCCCCCCNC2=C(Cl)C(=O)c3ccccc3C2=O)C(=O)c2ccccc21	false (0)
Cc1ccccc1/C=C/C(=O)c1cccc(OCCCOc2cccc(C(=O)/C=C/c3ccccc3C)c2)c1	false (0)
CCO/C=N/C1=C(C#N)C(c2ccc(Cl)cc2)c2sc3c(F)cccc3c2O1 (stereo not drawn)	false (0)
CC(C)(C)[Si](C)(C)OC1[C@@H](CNC(=O)NC(=O)NC(N)=O)O[C@@H](n2cnc3c(NC(=O)Nc4ccccc4)ncnc32)[C@H]1O[Si](C)(C)C(C)(C)C (stereo partly drawn)	false (0)

Where do these numbers come from? They come from PubChem BioAssay (NCI).
